Molecular target: human Granzyme B (hGzmB) (Homo sapiens, UniProt P10144)
Construct: purchased Froelich Lab, Northshore University Health Systems Research Institute, Evanston, Ill., USA
Sequence (P10144 21-247): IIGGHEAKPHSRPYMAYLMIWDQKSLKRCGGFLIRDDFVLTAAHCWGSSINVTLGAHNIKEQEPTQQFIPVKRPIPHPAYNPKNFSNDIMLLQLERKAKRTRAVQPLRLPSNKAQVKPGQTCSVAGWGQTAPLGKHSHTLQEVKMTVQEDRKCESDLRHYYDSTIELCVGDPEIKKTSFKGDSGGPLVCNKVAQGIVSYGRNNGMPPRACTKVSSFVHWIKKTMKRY
Assay: Human Granzyme B enzymatic inhibition assay (fluorogenic, kinetic)
Format: biochemical
Conditions: activity codes, Table 7; read-out: IC50 Activity Range
Description: A specific 2× assay buffer was prepared for the enzyme to be tested (see Table 2 for final 1× assay buffer compositions). If the assay buffer included DTT, it was added immediately prior to running the assay. A 2× enzyme mix was prepared (see Table 3 for enzyme assay conditions) at 80 uL per well. […] An appropriate control was also assessed in full dose response, in duplicate for each assay/plate. […] Plates so prepared were ready for addition of substrate and the subsequent reaction. […]
metric.name: IC50

molecule | study.system | metric.name | recorded.measurement
CC[C@H](C)[C@H](NC(=O)Cc1csc2ccccc12)C(=O)NCC(=O)N1c2ccccc2C[C@H]1C(=O)NCc1nn[nH]n1 [Example A27] | human Granzyme B (hGzmB) (Homo sapiens, UniProt P10144) | IC50 | < 100 nM
CC[C@H](C)[C@H](NC(=O)[C@@H](O)[C@H](O)C(=O)O)C(=O)NCC(=O)N1c2ccccc2C[C@H]1C(=O)NCc1nn[nH]n1 [Example A33] | human Granzyme B (hGzmB) (Homo sapiens, UniProt P10144) | IC50 | < 100 nM
CC[C@H](C)[C@H](NC(=O)Cc1ccccc1)C(=O)NCC(=O)N1c2ccccc2C[C@H]1C(=O)NCc1c[nH]nn1 [Example B1] | human Granzyme B (hGzmB) (Homo sapiens, UniProt P10144) | IC50 | 100 to 1000 nM
CC[C@H](C)[C@H](NC(=O)C1CC=CCC1C(=O)O)C(=O)NCC(=O)N1c2ccccc2C[C@H]1C(=O)NCc1nn[nH]n1 (single isomer, unassigned) [Example A21-2] | human Granzyme B (hGzmB) (Homo sapiens, UniProt P10144) | IC50 | < 100 nM
CC[C@H](C)[C@H](NC(=O)CC(C)CC(=O)O)C(=O)NCC(=O)N1c2ccccc2C[C@H]1C(=O)NCc1nn[nH]n1 (single isomer, unassigned) [Example A17-1] | human Granzyme B (hGzmB) (Homo sapiens, UniProt P10144) | IC50 | 100 to 1000 nM
CC[C@H](C)[C@H](NC(=O)CC1(CC(=O)O)CCCC1)C(=O)NCC(=O)N1c2ccccc2C[C@H]1C(=O)NCc1nn[nH]n1 [Example A19] | human Granzyme B (hGzmB) (Homo sapiens, UniProt P10144) | IC50 | < 100 nM
